- Test system: AAMU-Ab
- assay_name: Competitive antigen ELISA, cross-reactivity of AAMU-Ab
- Assay type: binding, rabbit
- measurement_context: read-out: concentration required for 50% inhibition in the competitive antigen ELISA; AAMU-Ab
measured_metric: IC50 (nM)

{"chemical_string": "CC(=O)Nc1c(N)n(C)c(=O)[nH]c1=O", "experimental_value": 1500}
